subject of test: CYP1A2 (Homo sapiens)
Construct: 0.1 mg/mL protein human liver microsomes (BD Gentest); tissue BD Gentest; host or cells: human liver microsomes
Sequence (P05177 whole entry): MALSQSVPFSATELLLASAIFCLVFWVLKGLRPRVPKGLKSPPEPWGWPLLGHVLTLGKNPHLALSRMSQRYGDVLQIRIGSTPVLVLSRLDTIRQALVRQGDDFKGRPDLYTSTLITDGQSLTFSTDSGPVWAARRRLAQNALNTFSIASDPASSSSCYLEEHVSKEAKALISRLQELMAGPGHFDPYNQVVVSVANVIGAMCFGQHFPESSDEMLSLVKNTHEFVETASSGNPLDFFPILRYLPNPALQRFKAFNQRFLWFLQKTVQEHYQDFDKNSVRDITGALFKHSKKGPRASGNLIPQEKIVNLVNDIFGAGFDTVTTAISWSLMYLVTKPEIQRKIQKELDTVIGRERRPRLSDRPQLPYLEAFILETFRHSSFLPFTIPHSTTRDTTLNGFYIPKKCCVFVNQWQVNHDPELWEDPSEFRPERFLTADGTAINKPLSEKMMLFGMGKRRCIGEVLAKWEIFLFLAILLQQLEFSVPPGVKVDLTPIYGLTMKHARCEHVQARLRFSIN
test details: Cocktail assay for CYPs in human liver microsomes: CYP1A2 (phenacetin O-deethylation)
Format: biochemical
experimental setup: human liver microsomes 0.1 mg/mL, 10 μM phenacetin, 10 min at 37° C., 6 concentrations up to 10 μM; read-out: IC50 (nM) CYP1A2
property label: IC50

Quick one: IC50 for N#Cc1ccc(C2(n3cncc3CN3CCN(c4nc5ccccc5o4)CC3)CC2)cc1 ?
> 10000 nM

Quick one: IC50 for CC(=O)N1CCN(Cc2cncn2[C@H](C)c2ccc(F)cc2)CC1c1ccccc1 (stereo partly shown) ?
> 10000 nM

What does the record list as IC50 for CC1CN(Cc2cncn2[C@H](C)c2ccc(F)cc2)CC(C)N1C(=O)C1(C)CC1 (stereo partly shown) ?
> 10000 nM

Dear colleague, I am looking for the recorded IC50 of the following molecule: C[C@H](c1ccc(F)cc1)n1cncc1CN1CCN(Cc2cnc(N3CCN(C)CC3)s2)C(=O)C1
> 10000 nM

* * *

subject of test: CYP2D6 (Homo sapiens)
Construct: 0.1 mg/mL protein human liver microsomes (BD Gentest); tissue BD Gentest; host or cells: human liver microsomes
Sequence (P10635 whole entry): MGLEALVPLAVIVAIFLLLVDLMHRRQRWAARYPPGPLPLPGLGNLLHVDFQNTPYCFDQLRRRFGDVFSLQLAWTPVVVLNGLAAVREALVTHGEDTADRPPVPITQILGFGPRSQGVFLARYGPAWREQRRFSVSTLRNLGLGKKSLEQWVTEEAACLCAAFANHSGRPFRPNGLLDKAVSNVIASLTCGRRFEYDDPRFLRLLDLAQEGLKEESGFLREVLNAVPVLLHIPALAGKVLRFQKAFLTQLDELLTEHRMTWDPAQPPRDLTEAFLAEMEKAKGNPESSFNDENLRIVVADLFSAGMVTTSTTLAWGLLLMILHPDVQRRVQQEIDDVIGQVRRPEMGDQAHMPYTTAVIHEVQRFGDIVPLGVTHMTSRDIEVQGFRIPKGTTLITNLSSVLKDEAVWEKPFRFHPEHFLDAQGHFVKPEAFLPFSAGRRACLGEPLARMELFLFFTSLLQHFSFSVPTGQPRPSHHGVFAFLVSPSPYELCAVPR
test details: Cocktail assay for CYPs in human liver microsomes: CYP2D6 (dextromethorphan O-demethylation)
Assay type: biochemical
experimental setup: human liver microsomes 0.1 mg/mL, 5 μM dextromethorphan, 10 min at 37° C., 6 concentrations up to 10 μM; read-out: IC50 (nM) CYP2D6
property label: IC50

Field request: IC50 | item: C[C@H](c1ccc(F)cc1)n1cncc1CN1CCN(Cc2cn3ccccc3n2)C(=O)C1
> 10000 nM

Which value of IC50 has been reported for C[C@H](c1ccc(C#N)cc1)n1cncc1CN1CCN(c2ccccc2)C(C(=O)N2CCC(F)(F)CC2)C1 (stereo partly drawn) in the records?
> 10000 nM

// IC50 lookup, key: C[C@H](c1ccc(C#N)cc1)n1cncc1CN1CCN(c2ccccc2)C(C(=O)N2CCCCC2)C1 (single isomer, unassigned) [Compound 45b]
> 10000 nM

What value of measured IC50 is listed for CC1CN(Cc2cncn2[C@H](C)c2ccc(C#N)cc2)CC(C)N1C(=O)C1CC(F)(F)C1 (stereo partly drawn) ?
> 10000 nM

Endpoint output: IC50 of C[C@H](c1ccc(F)cc1)n1cncc1CN1CCN(C(=O)C2CCOCC2)C(c2ccccc2)C1 (single isomer, unassigned) [Compound 52a] . Value?
> 10000 nM

Can you look up the measured IC50 of CC(c1ccccc1-c1ccc(F)cc1)n1cncc1CN1CCCNC(=O)C1 (stereo not drawn) for me?
> 10000 nM

Form field: reported IC50 of CCS(=O)(=O)CCc1cnc(N2CCN(Cc3cncn3[C@H](C)c3ccc(F)cc3)CC2)s1
2950 nM

Any idea what IC50 was measured for C[C@H](c1ccc(C#N)cc1)n1cncc1CN1CCC(c2nc3ccccc3s2)CC1 ?
3210 nM

Query (compound): CC(c1ccccc1-c1ccc(F)cc1)n1cncc1CN1CCC(F)(F)C1 (stereo not drawn) ; field requested: IC50
1930 nM
